- Tested on: SF-295
- method.notes: SRB anticancer assay, CNS
- Type: cell-based, human
- Parameters: unit not given here
- stated.conditions: SF-295; present compounds

{"query.smiles": "COc1cc2nc(-c3ccc(-n4cncc4-c4ccc(N)cc4)cc3)sc2c(OC)c1OC", "experimental.system": "SF-295", "Log10GI50": "−5.82"}
{"query.smiles": "COc1cc(-c2cncn2-c2ccc(-c3nc4ccc(F)cc4s3)cc2)ccc1F", "experimental.system": "SF-295", "Log10GI50": "−4.90"}
{"query.smiles": "COc1cc(OC)cc(-c2cncn2-c2ccc(-c3nc4cc(OC)c(OC)c(OC)c4s3)cc2)c1", "experimental.system": "SF-295", "Log10GI50": "−5.44"}
{"query.smiles": "COc1ccc(-c2cncn2-c2ccc(-c3nc4cc(OC)c(OC)c(OC)c4s3)cc2)cc1N", "experimental.system": "SF-295", "Log10GI50": "−5.35"}

---

- Test system: TK-10
- method.notes: SRB anticancer assay, renal
- Assay type: cell-based, human
- stated.conditions: Homo sapiens, TK-10, 48 h
result.type: GI50

{"query.smiles": "COc1cc(OC)cc(-c2cncn2-c2ccc(-c3nc4cc(OC)c(OC)c(OC)c4s3)cc2)c1", "value.reported": "26.4 µM"}
{"query.smiles": "COc1ccc(-c2cncn2-c2ccc(-c3nc4cc(OC)c(OC)c(OC)c4s3)cc2)cc1N", "value.reported": "4.16 µM"}
{"query.smiles": "COc1cc2nc(-c3ccc(-n4cncc4-c4ccc(N)cc4)cc3)sc2c(OC)c1OC", "value.reported": "4.93 µM"}
{"query.smiles": "COc1cc(-c2cncn2-c2ccc(-c3nc4ccc(F)cc4s3)cc2)ccc1F", "value.reported": "38.8 µM"}
{"query.smiles": "COc1cc(OC)c2sc(-c3ccc(-n4cncc4-c4ccc(OC)c(OC)c4)cc3)nc2c1", "value.reported": "> 100 µM"}
{"query.smiles": "COc1cc(OC)cc(-c2cncn2-c2ccc(-c3nc4cc(OC)cc(OC)c4s3)cc2)c1", "value.reported": "16.8 µM"}
{"query.smiles": "COc1cc(OC)c2sc(-c3ccc(-n4cncc4-c4cc(OC)c(OC)c(OC)c4)cc3)nc2c1", "value.reported": "9.4 µM"}

---

- Tested on: Renal cancer cell lines
- method.notes: SRB anticancer assay, panel result
- Assay type: cell-based, human
- stated.conditions: Homo sapiens; Renal panel; read-out: mean graph midpoint value (MG_MID) of Log10 GI50 (converted)
Please use satisfied for GI50 under 10 µM and not satisfied for everything else, ties included.

{"query.smiles": "COc1cc2nc(-c3ccc(-n4cncc4-c4ccc(N)cc4)cc3)sc2c(OC)c1OC", "assigned.class": "satisfied"}
{"query.smiles": "COc1cc(OC)c2sc(-c3ccc(-n4cncc4-c4cc(OC)c(OC)c(OC)c4)cc3)nc2c1", "assigned.class": "satisfied"}
{"query.smiles": "COc1cc(OC)cc(-c2cncn2-c2ccc(-c3nc4cc(OC)cc(OC)c4s3)cc2)c1", "assigned.class": "not satisfied"}
{"query.smiles": "COc1cc(OC)c2sc(-c3ccc(-n4cncc4-c4ccc(OC)c(OC)c4)cc3)nc2c1", "assigned.class": "not satisfied"}
{"query.smiles": "COc1cc(OC)cc(-c2cncn2-c2ccc(-c3nc4cc(OC)c(OC)c(OC)c4s3)cc2)c1", "assigned.class": "not satisfied"}
